Test system: NOMO1
Assay: cell viability relative to DMSO control; higher = less cytotoxic
Conditions: RPMI 5 mM glucose + 10% dialyzed FBS; 48 h; 1.71 µM
Answer each item with its documented cell viability.
One number for each entry, in %.

Use these answered entries as a reference point.
[[record]]
molecule = "Cc1nc2ccc(CN(C)c3ccc(C(=O)N[C@@H](CCC(=O)O)C(=O)O)s3)cc2c(=O)[nH]1"
testreadout = "cell viability"
value = 25.6

[[record]]
molecule = "O=C(Nc1ccccc1)Nc1ccc(-c2ccc(C(=O)[C@@H]3CCC[C@H]3C(=O)O)cc2)cc1"
testreadout = "cell viability"
value = 96

[[record]]
molecule = "C[C@@H](Cc1cc2c(c(C(N)=O)c1)N(CCCO)CC2)NCCOc1ccccc1OCC(F)(F)F"
testreadout = "cell viability"
value = 121


Each molecule below has a reported value. Please supply its cell viability.
1. CC(O)(C[S+](=O)([O-])c1ccc(F)cc1)C(=O)Nc1ccc(C#N)c(C(F)(F)F)c1 (stereo unspecified)
2. CN(C)CCc1c[nH]c2ccc(Cn3cncn3)cc12
3. OC[C@H]1OC(O)C[C@@H](O)[C@@H]1O (stereo partly specified)

1: 82.5; 2: 32; 3: 142

###

Answer each item with its documented cell viability.
Tested on: SEM cells
Assay: cell viability relative to DMSO control; higher = less cytotoxic
Conditions: HPLM + 10% dialyzed FBS; 48 h; 0.0632 µM
Answers are plain numbers, in %.

[[record]]
smilesinput = "CN(C[C@@H]1COCCO1)[S+]([O-])(=O)NC2=CC3=C(C=C2)\\C=C/C4=C(C=C(C=N4)C5=C[N](C)N=C5)C3=O"
value = 79.5


Each molecule below has a reported value. Please supply its cell viability.
1. CCCCN1CCC(CNC(=O)c2c3n(c4ccccc24)CCCO3)CC1
2. COc1cc2c(cc1OC)CN(CCc1ccc(NC(=O)c3cccc4c(=O)c5cccc(OC)c5[nH]c34)cc1)CC2
3. C[S+](=O)([O-])N1CCN(Cc2cc3nc(-c4cccc5[nH]ncc45)nc(N4CCOCC4)c3s2)CC1
4. COc1cc2cc(c1Cl)N(C)C(=O)C[C@H](OC(=O)C(C)C)[C@]1(C)O[C@@H]1[C@H](C)[C@@H]1C[C@@](O)(NC(=O)O1)[C@H](OC)/C=C/C=C(\C)C2
5. O=C1\C=C(OC2=C(C=CC=C12)C3=CC=CC4=C3SC5=C4C=CC=C5)\N6CCOCC6
6. CN(C)c1ccc(-c2nc3c(N4CCN(CC(=O)Nc5nccs5)CC4)c(Cl)cnc3[nH]2)cc1

[94.5, 106, 103, 15.2, 124, 115]

Each molecule below has a reported value. Please supply its cell viability.
1. C/C=C(\C)C(=O)N[C@@H](c1ccccc1)[C@@H](O)C(=O)O[C@H]1C[C@@]2(O)[C@@H](OC(=O)c3ccccc3)[C@@H]3[C@]4(OC(C)=O)CO[C@@H]4C[C@H](O)[C@@]3(C)C(=O)[C@H](OC(C)=O)C(=C1C)C2(C)C
2. C[S+](=O)([O-])OCCCCO[S+](C)(=O)[O-]

1: 19.2; 2: 145

###

Answer each item with its documented cell viability.
Test system: SEM cells
Test: cell viability relative to DMSO control; higher = less cytotoxic
Conditions: RPMI 5 mM glucose + 10% dialyzed FBS; 48 h; 15.4 µM
Give bare numbers, in %.

Use these answered entries as a reference point.
[[record]]
compound = "CC(=O)N(O)CCCCCNC(=O)CCC(=O)N(O)CCCCCNC(=O)CCC(=O)N(O)CCCCCN.C[S+](=O)([O-])O"
unitabbrev = "%"
value = 23.6

[[record]]
compound = "COc1cccc(N(C)C(=S)Oc2ccc3c(c2)CCCC3)n1"
unitabbrev = "%"
value = 98.5

[[record]]
compound = "CC(C)(C)NCC(O)c1ccc(O)c(CO)c1 (stereo not drawn)"
unitabbrev = "%"
value = 122

[[record]]
compound = "CCn1c(C(=O)N(C2CC2)C2CC2)cc2c3c(ncn3C)c(Nc3cc(C)n(C)n3)nc21"
unitabbrev = "%"
value = 66.8

[[record]]
compound = "CN(CC(=O)N(Cc1ccc(C2CCCCC2)cc1)c1ccc(C(=O)O)c(O)c1)[S+](=O)([O-])c1c(F)c(F)c(F)c(F)c1F"
unitabbrev = "%"
value = 66.6


Each compound below has a reported value. Please supply its cell viability.
1. CN(C)C(=O)[C@H](O)[C@H](Cc1ccccc1)NC(=O)c1cc2cc(Cl)ccc2[nH]1
2. N#CC1(c2cccc(C(=O)Nc3cc(Oc4ccc5nc(NC(=O)C6CC6)sc5n4)ccc3F)c2Cl)CC1
3. CC(C)[C@H]1C(=O)N[C@H](CO)Cc2c[nH]c3cccc(c23)N1C

1. 8.36
2. 37.1
3. 74.1
